procedureText: Inhibition of TEM1 beta-lactamase
valueType: IC50 (nM)
Quick note: give the figure in nM, leave out the unit.

1. O=C([O-])C1=CS[C@@H]2/C(=C/c3cc4oc5c(n4n3)CCOC5)C(=O)N12.[Na+] | 150
2. O=C([O-])C1=CS[C@@H]2/C(=C\c3cc4oc5c(n4n3)CCCC5)C(=O)N12.[Na+] | 4
3. O=C([O-])C1=CS[C@@H]2/C(=C\c3cn4c5c(sc4n3)COCC5)C(=O)N12.[Na+] | 2.8
4. O=C([O-])C1=CS[C@@H]2/C(=C\c3cn4c5c(sc4n3)CCC5)C(=O)N12.[Na+] | 1.4
5. Cn1c2ccccc2n2cc(/C=C3/C(=O)N4C(C(=O)[O-])=CS[C@H]34)nc12.[Na+] | 24
6. CCOC(=O)N1CCc2c(oc3cc(/C=C4/C(=O)N5C(C(=O)[O-])=CS[C@H]45)nn23)C1.[Na+] | 1.2

The molecule listed as O=C([O-])C1=CS[C@@H]2/C(=C\c3cn4c5c(sc4n3)CCCC5)C(=O)N12.[Na+] has a reported IC50 of 1.9

IC50 for O=C([O-])C1=CS[C@@H]2/C(=C\c3cc4oc5c(n4n3)CCOC5)C(=O)N12.[Na+] is 4.3

Per the records, this molecule ( O=C([O-])C1=CS[C@@H]2/C(=C\c3cn4c(n3)nc3n4CCCC3)C(=O)N12.[Na+] ) has IC50 equal to 2.4

Sure, the documented IC50 for C[C@]1(Cn2ccnn2)[C@H](C(=O)[O-])N2C(=O)C[C@H]2S1(=O)=O.[Na+] [TAZOBACTAM SODIUM] is 100

Source listed as ChEMBL document CHEMBL1141585.
